# TARGET SYSTEM: UniProtKB P54760
# Sequence (P54760 whole entry, looked up): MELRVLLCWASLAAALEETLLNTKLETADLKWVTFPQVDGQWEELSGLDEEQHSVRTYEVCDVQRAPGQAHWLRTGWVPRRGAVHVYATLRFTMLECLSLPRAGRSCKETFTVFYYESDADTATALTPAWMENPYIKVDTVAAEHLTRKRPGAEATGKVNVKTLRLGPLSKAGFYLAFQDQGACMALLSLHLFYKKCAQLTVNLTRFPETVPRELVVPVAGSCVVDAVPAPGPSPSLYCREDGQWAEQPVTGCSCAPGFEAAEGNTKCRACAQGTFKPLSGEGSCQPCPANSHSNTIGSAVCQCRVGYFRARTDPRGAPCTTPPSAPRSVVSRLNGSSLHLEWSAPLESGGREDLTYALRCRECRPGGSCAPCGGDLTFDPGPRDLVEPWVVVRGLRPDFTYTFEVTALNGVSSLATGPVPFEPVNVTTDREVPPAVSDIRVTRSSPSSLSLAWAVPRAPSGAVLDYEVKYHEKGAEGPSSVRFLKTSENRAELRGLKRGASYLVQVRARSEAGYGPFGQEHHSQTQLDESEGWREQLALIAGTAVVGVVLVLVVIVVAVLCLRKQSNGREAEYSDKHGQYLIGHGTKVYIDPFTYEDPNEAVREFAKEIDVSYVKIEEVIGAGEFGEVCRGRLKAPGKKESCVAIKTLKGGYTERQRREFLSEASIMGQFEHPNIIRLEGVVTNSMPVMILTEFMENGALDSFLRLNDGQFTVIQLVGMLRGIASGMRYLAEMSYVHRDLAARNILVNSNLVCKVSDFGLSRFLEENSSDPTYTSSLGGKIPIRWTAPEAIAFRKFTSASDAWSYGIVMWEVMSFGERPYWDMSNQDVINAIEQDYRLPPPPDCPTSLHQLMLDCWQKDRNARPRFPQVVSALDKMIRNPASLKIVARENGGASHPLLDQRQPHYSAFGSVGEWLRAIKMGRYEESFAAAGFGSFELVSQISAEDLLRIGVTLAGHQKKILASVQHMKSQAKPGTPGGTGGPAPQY
# METHOD NOTES: KINOMEscan competition binding
OBSERVED PROPERTY: Kd

Per the records, this molecule ( Oc1ccc(-c2nc(-c3ccc(F)cc3)c(-c3ccncc3)[nH]2)cc1 ) has Kd equal to > 10 µM

----------
# TARGET SYSTEM: CSK (human) (UniProt P41240)
# Sequence (P41240 whole entry, looked up): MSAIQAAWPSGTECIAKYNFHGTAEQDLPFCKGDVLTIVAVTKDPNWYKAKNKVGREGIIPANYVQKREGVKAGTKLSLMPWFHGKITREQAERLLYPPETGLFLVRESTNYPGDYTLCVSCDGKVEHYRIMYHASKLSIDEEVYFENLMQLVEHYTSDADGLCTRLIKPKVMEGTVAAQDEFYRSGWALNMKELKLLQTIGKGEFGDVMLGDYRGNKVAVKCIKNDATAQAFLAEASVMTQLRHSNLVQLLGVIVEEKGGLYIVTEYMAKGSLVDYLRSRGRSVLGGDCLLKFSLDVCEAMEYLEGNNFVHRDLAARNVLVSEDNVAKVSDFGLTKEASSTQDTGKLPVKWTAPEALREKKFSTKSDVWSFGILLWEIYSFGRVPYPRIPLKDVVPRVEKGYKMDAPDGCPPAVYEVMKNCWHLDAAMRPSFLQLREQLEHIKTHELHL
OBSERVED PROPERTY: Kd

Per the records, this compound ( Oc1ccc(-c2nc(-c3ccc(F)cc3)c(-c3ccncc3)[nH]2)cc1 ) has Kd equal to > 10 µM

----------
The listing below reports Kd for compounds tested on PTK2 (human).

O=C1c2ccccc2-c2n[nH]c3cccc1c23 = > 10 µM

Now let's try a different one.
Per the records, this compound ( Oc1ccc(-c2nc(-c3ccc(F)cc3)c(-c3ccncc3)[nH]2)cc1 ) has Kd equal to > 10 µM
